Where a name gives a salt, the structure may show the parent alone.
List of IC50 tested on human PDE4D (Homo sapiens).
Sequence (Q08499 386-715 limits assumed): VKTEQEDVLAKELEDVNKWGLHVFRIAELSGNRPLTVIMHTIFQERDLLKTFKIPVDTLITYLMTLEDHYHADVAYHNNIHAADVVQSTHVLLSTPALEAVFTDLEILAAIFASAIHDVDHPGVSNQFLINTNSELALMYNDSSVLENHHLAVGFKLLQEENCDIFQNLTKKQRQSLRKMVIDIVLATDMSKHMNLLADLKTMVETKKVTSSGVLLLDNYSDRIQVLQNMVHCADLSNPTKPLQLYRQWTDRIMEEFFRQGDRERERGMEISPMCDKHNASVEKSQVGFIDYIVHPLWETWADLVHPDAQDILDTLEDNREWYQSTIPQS
measured attribute: IC50 (nM)

// known answers, use as guide
- molecule: "COc1ccc([C@H](Cc2ccncc2)c2ccccc2)cc1OC1CCCC1 [CDP-840, hydrochloride]"
  tested system: "human PDE4D (Homo sapiens)"
  measured attribute: "IC50"
  reported result: 2.1
- molecule: "O=C(Nc1c(Cl)c[n+]([O-])cc1Cl)c1ccc(OC(F)F)c2oc3ccncc3c12"
  tested system: "human PDE4D (Homo sapiens)"
  measured attribute: "IC50"
  reported result: 2.7
- molecule: "CCOc1ccc(-c2nc(-c3cccc(C(=O)O)n3)cs2)cc1OCC"
  tested system: "human PDE4D (Homo sapiens)"
  measured attribute: "IC50"
  reported result: 70
- molecule: "CCC1C(C)=NN=C(c2ccc(OC)c(OC)c2)c2cc(OC)c(OC)cc21 (stereo not shown)"
  tested system: "human PDE4D (Homo sapiens)"
  measured attribute: "IC50"
  reported result: 900
- molecule: "CCNc1ncn(Cc2ccc(OC)c(OC3CCCC3)c2)c2nc(C(C)C)nc1-2"
  tested system: "human PDE4D (Homo sapiens)"
  measured attribute: "IC50"
  reported result: 200
- molecule: "O=C(Nc1c(Cl)cncc1Cl)C(=O)c1cn(Cc2ccc(F)cc2)c2ncccc12"
  tested system: "human PDE4D (Homo sapiens)"
  measured attribute: "IC50"
  reported result: 3.5

a. CCCOc1cc([C@]2(C)CNC(=O)O2)ccc1OC
b. Cc1c[n+]([O-])ccc1CC(c1ccc(C(O)(C(F)(F)F)C(F)(F)F)cc1)c1ccc(OC(F)F)c(OC(F)F)c1 (stereo not shown)
c. CS(=O)(=O)Nc1ccc2oc3c(OC(F)F)ccc(C(=O)Nc4c(Cl)cncc4Cl)c3c2c1
Qu. // sort entries: IC50, high to low Output spec: a listing of the labels in the requested order.
Ans. a, c, b
